Target: SARS-CoV-2 RdRp (nsp12/nsp7/nsp8) (Severe acute respiratory syndrome coronavirus 2)
Construct: added initiator Met before nsp12 (N); made in house; host or cells: Sf9 insect cells (Spodoptera frugiperda), baculovirus
Assay: FRET-based strand displacement assay (RdRp activity)
Type: biochemical
Conditions: IC50 (µM) + 0.01% Triton X-100, 150 nM RdRp, 100 nM RNA substrate, 300 µM of each NTP; presence of 0.01% Triton X-100
Readout Type: IC50 (µM)
// units = µM; emit number, no label

The value of IC50 measured for the compound NC(=O)c1cc[n+](CC2=C(C(=O)O)N3C(=O)[C@@H](NC(=O)[C@@H](c4ccccc4)S(=O)(=O)[O-])[C@H]3SC2)cc1 turned out to be 49

The reported IC50 of the compound CC(C)C(C(=O)O)N1C(=O)/C(=C/c2ccc(Br)cc2)SC1=S (stereo not drawn) was 13

For record O=C(O)c1ccc(-c2c[nH]c3ncc(-c4ccccc4)cc23)cc1C1CCCC1 the listed IC50 is 29

IC50 measured on CC1=NN(c2ccc(C(=O)O)cc2)C(=O)C1=Cc1ccc(-c2cc(C)c(C)cc2[N+](=O)[O-])o1 = 7.8

Data point: Cc1ccc(C(=O)Nc2ccc(S(=O)(=O)O)c3cc(S(=O)(=O)O)cc(S(=O)(=O)O)c23)cc1NC(=O)c1cccc(NC(=O)Nc2cccc(C(=O)Nc3cc(C(=O)Nc4ccc(S(=O)(=O)O)c5cc(S(=O)(=O)O)cc(S(=O)(=O)O)c45)ccc3C)c2)c1 ; IC50 = 0.78

---

Biological target: SARS-CoV-2 RdRp (nsp12/nsp7/nsp8) (Severe acute respiratory syndrome coronavirus 2)
Construct: added initiator Met before nsp12 (N); made in house; host or cells: Sf9 insect cells (Spodoptera frugiperda), baculovirus
Assay: FRET-based strand displacement assay (RdRp activity)
Format: biochemical
Conditions: IC50 (µM) No detergent, 150 nM RdRp, 100 nM RNA substrate, 300 µM of each NTP; absence of Triton X-100
Readout Type: IC50 (µM)
Entry rule: numbers only, all in µM.

Measured IC50, CC1=NN(c2ccc(C(=O)O)cc2)C(=O)C1=Cc1ccc(-c2cc(C)c(C)cc2[N+](=O)[O-])o1 : 6.1

Form: compound = CC(C)C(C(=O)O)N1C(=O)/C(=C/c2ccc(Br)cc2)SC1=S (stereo not drawn) ; IC50 = 14

IC50 reported for this compound O=C(O)c1ccc(-c2c[nH]c3ncc(-c4ccccc4)cc23)cc1C1CCCC1 : 31

response.value for NC(=O)c1cc[n+](CC2=C(C(=O)O)N3C(=O)[C@@H](NC(=O)[C@@H](c4ccccc4)S(=O)(=O)[O-])[C@H]3SC2)cc1 (field: IC50) = 50

Query Cc1ccc(C(=O)Nc2ccc(S(=O)(=O)O)c3cc(S(=O)(=O)O)cc(S(=O)(=O)O)c23)cc1NC(=O)c1cccc(NC(=O)Nc2cccc(C(=O)Nc3cc(C(=O)Nc4ccc(S(=O)(=O)O)c5cc(S(=O)(=O)O)cc(S(=O)(=O)O)c45)ccc3C)c2)c1 yields IC50 of 0.43

---

Target: SARS-CoV-2 RdRp (nsp12/nsp7/nsp8) (Severe acute respiratory syndrome coronavirus 2, UniProt P0DTD1)
Construct: added initiator Met before nsp12 (N); made in house; host or cells: Sf9 insect cells (Spodoptera frugiperda), baculovirus
Experiment: Gel-based polymerisation (primer-extension) assay
Format: biochemical
Conditions: compound at 50 µM, 30-min reaction, 300 nM RdRp, native PAGE
Readout Type: Inhibition of RNA duplex formation

INSERT INTO assay_data (compound, readout_type, result) VALUES
  ('O=C(O)c1ccc(-c2c[nH]c3ncc(-c4ccccc4)cc23)cc1C1CCCC1 [GSK-650394]', 'Inhibition of RNA duplex formation', 'partial inhibition'),
  ('NC(=O)c1cc[n+](CC2=C(C(=O)O)N3C(=O)[C@@H](NC(=O)[C@@H](c4ccccc4)S(=O)(=O)[O-])[C@H]3SC2)cc1 [Cefsulodin]', 'Inhibition of RNA duplex formation', 'partial inhibition');

Taken from paper PMC8286815.
